- TARGET_UNDER_TEST: T1, recombinant human Macrophage Migration Inhibitory Factor (MIF 2-115) (human, UniProt P14174 2-115)
- T1 construct: rhMIF bought from R&D Systems; The background describes MIF as a homotrimer but also as monomer, dimer or higher oligomers; In the cell assays (THP-1, human PBMC) the MIF is the cells' own; also called rhMIF; human MIF
- EXPERIMENTAL_PROTOCOL: SPR (BIAcore T200), rhMIF immobilised on CM5 chip, 1:1 Langmuir model
Measured Kd, listed per entry.
Record the value in nM, omitting the unit from your answer.

anti-MIF ISVD H5 (VHH, Family IV; Expressed from pAX100, purified by IMAC) VHH: EVQLVESGGGLVQPGGSLRLSCVASGFTFRTYAMSWVRQAPGKGSEWVSTINNGGGVTGYADSVEGRFTISRDNAKNTLYLQMNSLKPEDTAVYYCAKGTSRGQGTQVTVSS ... 27.5

Switching to the query record.
Ask: For the binder shown here, anti-MIF ISVD D12 (VHH, Family VI; Expressed from pAX100, purified by IMAC) VHH: EVQLVESGGGLVQAGGSLRLSCAASGRTISSYIVGWFRQAPGKEREFVANIGWSGSMPLYADSVKGRFTIFRDNAKNTVYLEMNKLKPEDTAVYYCAARGAGQLTNDYWGQGTQVTVSS , give the reported Kd.
Result: 166
